The reported numbers originate from ChEMBL document CHEMBL3822447.

Some compounds, each annotated with its measured GI50.
tested on: A2780; experiment: Cytotoxicity against human A2780 cells assessed as cell growth inhibition after 72 hrs by MTS assay; assay type: functional; conditions: A2780, 72 h
measurement.label: GI50

>>> result_value("CC/C(=C(\\c1ccc(NC(=O)C(C)C)cc1)c1ccc(OC)cc1)c1ccc(Cl)cc1Cl")
"8.2 µM"
>>> result_value("CC/C(=C(\\c1ccccc1)c1ccc(NC(=O)C(C)C)cc1)c1ccc(Cl)cc1Cl")
"8.4 µM"
>>> result_value("CC/C(=C(/c1ccccc1)c1ccc(NC(=O)C(C)C)cc1)c1ccccc1")
"31.6 µM"
>>> result_value("CC/C(=C(/c1ccc(NC(=O)C(C)C)cc1)c1ccc(OC)cc1)c1ccc(OCc2ccccc2)cc1")
"> 50 µM"
>>> result_value("CC/C(=C(/c1ccc(NC(=O)C(C)C)cc1)c1ccc(OC)cc1)c1ccc(Cl)cc1Cl")
"3.8 µM"
>>> result_value("CC/C(=C(/c1ccccc1)c1ccc(NC(=O)C(C)C)cc1)c1ccc(OCc2ccccc2)cc1")
"> 50 µM"
>>> result_value("CC/C(=C(\\c1ccccc1)c1ccc(NC(=O)C(C)C)cc1)c1ccccc1")
"> 50 µM"
>>> result_value("CC/C(=C(\\c1ccc(O)cc1)c1ccc(NC(=O)C(C)C)cc1)c1ccccc1")
"34 µM"
>>> result_value("CC/C(=C(/c1ccc(NC(=O)C(C)C)cc1)c1ccc(OC)cc1)c1ccc(O)cc1")
"13.6 µM"

====

tested on: A2780; assay: Cytotoxicity against human A2780 cells assessed as cell growth inhibition after 72 hrs by MTS assay; assay type: functional; settings: A2780, 72 h
Please use condition met for GI50 under 9 µM and condition not met for everything else, ties included.

>>> class_assignment("CC/C(=C(\\c1ccc(NC(=O)C(C)C)cc1)c1ccc(OC)cc1)c1ccc(OCc2ccccc2)cc1")
"condition not met"
>>> class_assignment("CC/C(=C(/c1ccc(NC(=O)C(C)C)cc1)c1ccc(OC)cc1)c1ccccc1")
"condition not met"
>>> class_assignment("CC/C(=C(\\c1ccc(NC(=O)C(C)C)cc1)c1ccc(OC)cc1)c1ccccc1")
"condition not met"
>>> class_assignment("CC/C(=C(\\c1ccccc1)c1ccc(NC(=O)C(C)C)cc1)c1ccc(O)cc1")
"condition met"
>>> class_assignment("CC/C(=C(\\c1ccccc1)c1ccc(N)cc1)c1ccccc1")
"condition not met"
>>> class_assignment("CC/C(=C(\\c1ccccc1)c1ccc(OCCN(C)C)cc1)c1ccccc1")
"condition not met"
>>> class_assignment("CC/C(=C(\\c1ccc(NC(=O)C(C)C)cc1)c1ccc(OC)cc1)c1ccc(O)cc1")
"condition met"
>>> class_assignment("CC/C(=C(/c1ccccc1)c1ccc(NC(=O)C(C)C)cc1)c1ccc(O)cc1")
"condition met"
>>> class_assignment("CC/C(=C(/c1ccc(O)cc1)c1ccc(NC(=O)C(C)C)cc1)c1ccccc1")
"condition not met"
>>> class_assignment("CC/C(=C(/c1ccccc1)c1ccc(NC(=O)C(C)C)cc1)c1ccc(Cl)cc1Cl")
"condition not met"
>>> class_assignment("CC/C(=C(\\c1ccc(O)cc1)c1ccc(NC(=O)C(C)C)cc1)c1ccc(Cl)cc1Cl")
"condition not met"
>>> class_assignment("CC/C(=C(/c1ccc(O)cc1)c1ccc(NC(=O)C(C)C)cc1)c1ccc(Cl)cc1Cl")
"condition not met"
